# Assay context: in ethyl acetate, 290.65 K
Assay endpoint: solubility (mole fraction)

[ask] Quick check: solubility (mole fraction) of Clc1ccc2c(c1)Nc1ccccc1S2 ?
[reply] 0.0216

====

# Assay context: in acetone, 315.65 K
Assay endpoint: solubility (mole fraction)

[ask] Any idea what its solubility (mole fraction) is? The compound is Clc1ccc2c(c1)Nc1ccccc1S2
[reply] 0.0544
